Sourced from ChEMBL document CHEMBL5331131

# TEST_NAME: Volume of distribution at steady state in Sprague-Dawley rat at 2.5 mg/kg, iv measured upto 24 hrs by LC-MS/MS analysis
# Type: ADME, organism-based
# CONDITIONS_USED: in vivo, read-out: Vdss
MEASUREMENT_KIND: Vd (L/kg)

MOLECULE	UNIT	MEASURED_RESULT
COc1cc(NC(C(=O)c2c[nH]c3cc(OC)c(C)cc23)c2ccc(F)cc2OC)cc(OCCO)c1 (single isomer, unassigned; (+))	L/kg	6.5
COc1cc(NC(C(=O)c2c[nH]c3cc(F)ccc23)c2ccc(Cl)cc2OC)cc(OCCO)c1 (single isomer, unassigned; (+))	L/kg	10.1
COc1cc(NC(C(=O)c2c[nH]c3cc(F)ccc23)c2ccc(F)cc2)cc(OCCO)c1 (stereo in doubt)	L/kg	7.3
COc1cc(NC(C(=O)c2c[nH]c3c(C)c(F)ccc23)c2ccc(F)cc2OC)cc(OCCO)c1 (single isomer, unassigned; (+))	L/kg	8.5
COc1cc(NC(C(=O)c2c[nH]c3c(C)c(Cl)ccc23)c2ccc(F)cc2OC)cc(OCCO)c1 (single isomer, unassigned; (+))	L/kg	6.5
COc1cc(NC(C(=O)c2c[nH]c3cc(OC)c(C)cc23)c2ccc(Cl)cc2OC)cc(OCCO)c1 (single isomer, unassigned; (+))	L/kg	6.8
COc1cc(NC(C(=O)c2c[nH]c3cc(F)ccc23)c2ccc(F)cc2OC)cc(OCCO)c1 (configuration not stated)	L/kg	7.6

----------
# TEST_NAME: Kinetic solubility of the compound in aqueous buffer at pH 4 measured after 4 hrs by UPLC/UV analysis
# Type: physicochemical
# CONDITIONS_USED: read-out: Kinetic_solubility
MEASUREMENT_KIND: solubility kinetic at 4 h (µM)

[1] COc1cc(NC(C(=O)c2c[nH]c3cc(F)ccc23)c2ccc(F)cc2OC)cc(OCCO)c1 (centres undefined)
[2] COc1cc(NC(C(=O)c2c[nH]c3c(C)c(F)ccc23)c2ccc(F)cc2OC)cc(OCCO)c1 (single isomer, unassigned; (+))
[3] COc1cc(NC(C(=O)c2c[nH]c3cc(OC)c(C)cc23)c2ccc(F)cc2OC)cc(OCCO)c1 (single isomer, unassigned; (+))
// query Quick one: which order do the items above go in by solubility kinetic at 4 h, smallest to largest? Use the labels to give the requested order.
// result 2, 3, 1

----------
# TEST_NAME: Half life in Sprague-Dawley rat at 2.5 mg/kg, iv measured by LC-MS/MS analysis
# Format: ADME, organism-based
# CONDITIONS_USED: in vivo
MEASUREMENT_KIND: half-life (h)

COMPOUND	MEASUREMENT_KIND	MEASURED_RESULT
COc1cc(NC(C(=O)c2c[nH]c3cc(F)ccc23)c2ccc(Cl)cc2OC)cc(OCCO)c1 (single isomer, unassigned; (+))	half-life	6.4

[I] COc1cc(NC(C(=O)c2c[nH]c3cc(OC)c(C)cc23)c2ccc(Cl)cc2OC)cc(OCCO)c1 (single isomer, unassigned; (+))
[II] COc1cc(NC(C(=O)c2c[nH]c3cc(OC)c(C)cc23)c2ccc(F)cc2OC)cc(OCCO)c1 (single isomer, unassigned; (+))
// query // which entry has the larger half-life value, I or II ? To answer, give the label that identifies your chosen option.
// result I
